Kindly state pKd for each of the entries shown.
EXPERIMENTAL_TARGET: reference 3D7 ctCSP peptide (P. falciparum 3D7)
TEST_DETAILS: SPR
# pKd: negative log10 of molar concentration; output just the value

**Query** Which pKd is reported for this binder? mAb1512 (antibody, V domains shown) VH: KVQLVQSGGGVVQPGRSQRLSCAASGLTLSEYAMHWVRQAPGKGLEWVAVILSDGTKKEYADSVKGRFTISRDNSKNTLYLQMNSLRAEDTAVYYCATDDNILGHCRSKSCQRNYYHGMDVWGQGTTVSVSS VL: DIVMTQSPLSLPVTPGEPASISCRSSQSLLHSNGKNYLDWYLQKPGQSPQLLIYLGSDRASGVPDRFSGSGSGTDFTLSISRVEAEDVGVYYCMQALQTPFTFGPGTKVDIK
**Result** 10.54

**Query** # lookup: pKd of mAb352 (antibody, V domains shown) VH: EVQLVESGGGLVKPGGSLRLSCAASGFSFSEYRMNWVRQAPGKGLEWVSFISSSGTYIDYADSVKGRFTISRDNVNNSLYLQMNNLRAGDTAVYYCARGMGIAVRRFDYWGQGTLVSVSS VL: SYVLTQPPSVSVAPGQTAKITCGGNNIGSESVHWYQQKPGQAPVLVVYDDAVRPSGIPERFSGSNSRNTATLTISRVEAGDEAAYYCQVWDSSTVASFGGGTKLTVL
**Result** 10.94

**Query** Need pKd of mAb234 (antibody, V domains shown) VH: EVQLVESGGGLVKPGGSLRLSCAASGFNFSTHIMNWVRQAPGKGLEWVSSISSSGTYIYYADSMKGRFTISRDNPKNSLYLQMNSLRAEDTAVYYCARARGFIQFHYYMDVWGKGTTVAVSS VL: SYVLTQPPSVSVAPGKTARITCGGNNIGSKSVHWHQQRPGQAPVLVVYDDKIRPSGIPERFSGSNSGNTATLIISRVEAGDEADYYCQVWHSSSDPVVFGGGTKLTVL , thanks.
**Result** 11.42

**Query** Look at this binder and give its reported pKd. mAb236 (antibody, V domains shown) VH: EVQLVESGGGLVQPGGSLRLSCVASGFNFTTYSMNWVRQAPGKGLEWVSYISSHSNLIYYATSVKGRFTISRDNAKNSLYLQMNSLRAEDTALYYCARGGSLHPSAGADWIDPWGQGTLVTVSS VL: SYELTQAPSVSVSPGQTATITCSGDKLGDKFTSWYQQKPGQSPVLVIYQDSKRPSGIPERFSASNSGNTATLTISGTRAMDEADYYCQAWDSNTYVFGTGTRVAVL
**Result** 11.56
